Protocol: Cytotoxicity against human TERT immortalized BJ1 cells at 10 uM after 48 hrs by MTT assay relative to control
Type: cell-based, BJ
Attribute: viability at 48 h, 10 µM

>  <Entry smiles>
CCCCNCCC(=O)Nc1ccc2c(c1)C(=O)c1cc(NC(=O)CCNCCCC)ccc1C2=O

>  <Unit descriptor>
%

>  <viability at 48 h, 10 µM>
70

$$$$
>  <Entry smiles>
O=C(CCCl)Nc1ccc2c(c1)C(=O)c1cc(NC(=O)CCCl)ccc1C2=O

>  <Unit descriptor>
%

>  <viability at 48 h, 10 µM>
65

$$$$
>  <Entry smiles>
CN(C)CC(=O)Nc1ccc2c(c1)C(=O)c1cc(NC(=O)CN(C)C)ccc1C2=O

>  <Unit descriptor>
%

>  <viability at 48 h, 10 µM>
45

$$$$
>  <Entry smiles>
CCNCC(=O)Nc1ccc2c(c1)C(=O)c1cc(NC(=O)CNCC)ccc1C2=O

>  <Unit descriptor>
%

>  <viability at 48 h, 10 µM>
56

$$$$
>  <Entry smiles>
O=C1c2ccc(NC(=O)C3CCCCC3)cc2C(=O)c2cc(NC(=O)C3CCCCC3)ccc21

>  <Unit descriptor>
%

>  <viability at 48 h, 10 µM>
76

$$$$

====

Attribute: growth percent at 10 µM
Tested on: SR
Protocol: Cytotoxicity against human SR cells at 10 uM after 48 hrs by MTT assay
Type: functional
Property label: growth percent at 10 µM (%)

>  <Entry smiles>
O=C1c2ccc(NC(=O)C3CC3)cc2C(=O)c2cc(NC(=O)C3CC3)ccc21

>  <Measured target>
SR

>  <Unit descriptor>
%

>  <Value>
1.69

$$$$
>  <Entry smiles>
CCN(CC)CCC(=O)Nc1ccc2c(c1)C(=O)c1cc(NC(=O)CCN(CC)CC)ccc1C2=O

>  <Measured target>
SR

>  <Unit descriptor>
%

>  <Value>
-0.39

$$$$
>  <Entry smiles>
CN(C)CC(=O)Nc1ccc2c(c1)C(=O)c1cc(NC(=O)CN(C)C)ccc1C2=O

>  <Measured target>
SR

>  <Unit descriptor>
%

>  <Value>
-46.5

$$$$
>  <Entry smiles>
CC(=O)Nc1ccc2c(c1)C(=O)c1cc(NC(C)=O)ccc1C2=O

>  <Measured target>
SR

>  <Unit descriptor>
%

>  <Value>
3.61

$$$$
>  <Entry smiles>
O=C(CCN1CCCC1)Nc1ccc2c(c1)C(=O)c1cc(NC(=O)CCN3CCCC3)ccc1C2=O

>  <Measured target>
SR

>  <Unit descriptor>
%

>  <Value>
19.8

$$$$

====

Protocol: Cytotoxicity against human H1299 cells at 100 uM after 48 hrs by MTT assay realtive to control
Type: functional
Experimental context: NCI-H1299, 48 h
Attribute: viability at 100 µM

>  <Entry smiles>
O=C(CCl)Nc1ccc2c(c1)C(=O)c1cc(NC(=O)CCl)ccc1C2=O

>  <viability at 100 µM>
1%

$$$$
>  <Entry smiles>
O=C(CCN1CCNCC1)Nc1ccc2c(c1)C(=O)c1cc(NC(=O)CCN3CCNCC3)ccc1C2=O

>  <viability at 100 µM>
102%

$$$$
>  <Entry smiles>
CC(C)CNCC(=O)Nc1ccc2c(c1)C(=O)c1cc(NC(=O)CNCC(C)C)ccc1C2=O

>  <viability at 100 µM>
11%

$$$$
>  <Entry smiles>
CCCCNCCC(=O)Nc1ccc2c(c1)C(=O)c1cc(NC(=O)CCNCCCC)ccc1C2=O

>  <viability at 100 µM>
14%

$$$$
>  <Entry smiles>
CN(C)CC(=O)Nc1ccc2c(c1)C(=O)c1cc(NC(=O)CN(C)C)ccc1C2=O

>  <viability at 100 µM>
15%

$$$$
>  <Entry smiles>
Nc1ccc2c(c1)C(=O)c1cc(N)ccc1C2=O

>  <viability at 100 µM>
65%

$$$$
>  <Entry smiles>
CN1CCN(CC(=O)Nc2ccc3c(c2)C(=O)c2cc(NC(=O)CN4CCN(C)CC4)ccc2C3=O)CC1

>  <viability at 100 µM>
37%

$$$$
>  <Entry smiles>
O=C(Nc1ccc2c(c1)C(=O)c1cc(NC(=O)c3ccccc3)ccc1C2=O)c1ccccc1

>  <viability at 100 µM>
41%

$$$$
>  <Entry smiles>
O=C1c2ccc(NC(=O)C3CCCCC3)cc2C(=O)c2cc(NC(=O)C3CCCCC3)ccc21

>  <viability at 100 µM>
52%

$$$$

Sourced from ChEMBL document CHEMBL1155063
